- System: giant foxtail (Setaria faberii)
- procedure-details: Test A preemergence
- Type: in vivo
- experimental-conditions: Preemergence, 500 g ai/ha; 0 is no effect, 100 is complete control
experimental-readout: Foxtail, Giant plant response rating (0 to 100 scale)
// keep it numeric: no unit symbol after the value

## Task Input Cc1cccc(C2CNC(=O)C2C(=O)Nc2ccccc2C(F)(F)F)c1 (racemic) , output reported Foxtail, Giant plant response rating (0 to 100 scale).
## Result 90

## Task Indicate its recorded Foxtail, Giant plant response rating (0 to 100 scale); the compound in question is Cc1ccc(C2CNC(=O)C2C(=O)Nc2ccc(F)cc2F)cc1F (racemic)
## Result 90

## Task Give recorded Foxtail, Giant plant response rating (0 to 100 scale). O=C1NCC(c2cccnc2)C1C(=O)Nc1ccccc1F (racemic)
## Result 0

## Task Return Foxtail, Giant plant response rating (0 to 100 scale) (reported value) for this compound: Nc1cccc(C2CNC(=O)C2C(=O)Nc2cccc(F)c2F)c1 (centres unmarked)
## Result 0

## Task Look up and state reported Foxtail, Giant plant response rating (0 to 100 scale) for CN1CC(c2cccc(OC(F)(F)C(F)F)c2)C(C(=O)Nc2cccc(F)c2F)C1=O (centres unmarked)
## Result 90

---

Provide the recorded pest or weed control at 125 g/ha for the entries that follow.
- System: ryegrass, Italian (Italian ryegrass, Lolium multiflorum)
- procedure-details: Test A postemergence
- Format: in vivo
- experimental-conditions: Lolium multiflorum, post-emergence, 240 h, 125 g ai/ha, Postemergence, visual rating about 10 d after treatment; read-out: Ryegrass, Italian plant response rating (0 to 100 scale)
Enter your answer as a number in %; do not include the unit.

## Task // fetch pest or weed control at 125 g/ha for Cc1cccc([C@H]2CN(C)C(=O)[C@@H]2C(=O)Nc2cccnc2F)c1 [Compound 1345] ; system: ryegrass, Italian (Italian ryegrass, Lolium multiflorum)
## Result 0

## Task Name the recorded pest or weed control at 125 g/ha of COc1ccc([C@H]2CNC(=O)[C@@H]2C(=O)Nc2cccc(F)c2F)cc1 [Compound 1341] , assay system ryegrass, Italian (Italian ryegrass, Lolium multiflorum).
## Result 0

## Task Determine reported pest or weed control at 125 g/ha for CSc1ccccc1NC(=O)[C@H]1C(=O)NC[C@@H]1c1cc(C)cc(F)c1 [Compound 1306] ; test system: ryegrass, Italian (Italian ryegrass, Lolium multiflorum).
## Result 0

## Task Give pest or weed control at 125 g/ha only, for O=C1NC[C@H](c2nccc(C(F)(F)F)n2)[C@H]1C(=O)Nc1ccccc1F [Compound 1304] , using ryegrass, Italian (Italian ryegrass, Lolium multiflorum) data.
## Result 0

## Task Tell me its pest or weed control at 125 g/ha on ryegrass, Italian (Italian ryegrass, Lolium multiflorum): CN1C[C@H](c2ccc(C(F)F)cc2)[C@@H](C(=O)Nc2cccnc2F)C1=O [Compound 1274]
## Result 20

## Task # assay system ryegrass, Italian (Italian ryegrass, Lolium multiflorum): give pest or weed control at 125 g/ha of O=C(Nc1ccc(F)c(F)c1F)[C@H]1C(=O)N(CC(F)F)C[C@@H]1c1cccc(C(F)(F)F)c1 [Compound 1297]
## Result 0

## Task Param request: pest or weed control at 125 g/ha | system ryegrass, Italian (Italian ryegrass, Lolium multiflorum) | item Cc1cc(F)cc([C@H]2CNC(=O)[C@@H]2C(=O)Nc2cccc(F)c2C)c1 [Compound 1308]
## Result 0

## Task Report pest or weed control at 125 g/ha on ryegrass, Italian (Italian ryegrass, Lolium multiflorum) for this entry: N#Cc1cc([C@H]2CNC(=O)[C@]2(O)C(=O)Nc2cccc(F)c2F)ccc1F [Compound 1374]
## Result 0

## Task Given CN1C[C@H](c2ccc(C(F)(F)F)nc2)[C@@H](C(=O)Nc2ccc(F)c(F)c2F)C1=O [Compound 1373] , report its pest or weed control at 125 g/ha on ryegrass, Italian (Italian ryegrass, Lolium multiflorum).
## Result 30
